- ASSAYED SYSTEM: MASP-2 (CCP1-CCP2-SP) (Homo sapiens (Human), UniProt O00187)
- Sequence (O00187 287-686): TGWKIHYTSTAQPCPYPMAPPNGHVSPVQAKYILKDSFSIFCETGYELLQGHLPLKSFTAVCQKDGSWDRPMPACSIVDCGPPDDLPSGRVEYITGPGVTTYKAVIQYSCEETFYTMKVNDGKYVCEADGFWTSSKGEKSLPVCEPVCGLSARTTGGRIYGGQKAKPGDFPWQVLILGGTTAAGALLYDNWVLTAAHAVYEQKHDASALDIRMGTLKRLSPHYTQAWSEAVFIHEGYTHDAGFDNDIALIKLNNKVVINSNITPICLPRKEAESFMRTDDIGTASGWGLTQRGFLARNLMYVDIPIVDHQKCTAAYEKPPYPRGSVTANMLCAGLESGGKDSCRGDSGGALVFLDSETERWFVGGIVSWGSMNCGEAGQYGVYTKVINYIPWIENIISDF
- METHOD NOTES: Enzymatic assay for MASP-2 (fluorogenic substrate)
- Assay type: biochemical
- CONDITION SUMMARY: MASP-2 Ki (μM), −Zn
MEASURED PROPERTY: Ki

Fill blank: measured Ki of the molecule N=C(N)c1ccc2[nH]c(Cc3nc4ccccc4[nH]3)nc2c1 is ____.
< 10 µM

* * *

- ASSAYED SYSTEM: MASP-2 (CCP1-CCP2-SP) (Homo sapiens (Human))
- METHOD NOTES: Enzymatic assay for MASP-2 (fluorogenic substrate)
- Type: biochemical
- CONDITION SUMMARY: MASP-2 inhibition versus thrombin
MEASURED PROPERTY: MASP-2 vs. thrombin selectivity

See these solved cases before continuing.
| LINE NOTATION | MEASURED PROPERTY | RECORDED VALUE |
| --- | --- | --- |
| C[C@H](NC(=O)[C@@H](CCc1ccccc1)NC1CCCCC1)C(=O)NCc1ccc(C(=N)N)cc1 | MASP-2 vs. thrombin selectivity | — (less than 1.0-fold) |
| C[C@H](NC(=O)[C@H]1C[C@H](Cc2cccc3ccccc23)CN1)C(=O)NCc1cc(Cl)ccc1-n1cnnn1 | MASP-2 vs. thrombin selectivity | — (<1.0-fold) |
| C[C@H](NC(=O)[C@H](N)CCc1ccccc1)C(=O)NCc1cc(Cl)ccc1-n1cnnn1 | MASP-2 vs. thrombin selectivity | — (<1.0-fold) |
| C[C@H](NC(=O)[C@H]1C[C@H](Cc2ccccc2)CN1)C(=O)NCc1cnc2[nH]cc(Cl)c2c1 | MASP-2 vs. thrombin selectivity | — (<1.0-fold) |
| N=C(N)c1ccc(CNC(=O)[C@@H]2CCCN2C(=O)[C@H](N)C2CCCCC2)cc1 | MASP-2 vs. thrombin selectivity | — (less than 1.0-fold) |

Okay, next one:
Fill blank: measured MASP-2 vs. thrombin selectivity of the compound C[C@H](NC(=O)[C@@H](CCc1ccccc1)NCc1cc2ccccc2[nH]1)C(=O)NCc1ccc(C(=N)N)cc1 is ____.
— (less than 1.0-fold)

* * *

- ASSAYED SYSTEM: UniProtKB O00187
- METHOD NOTES: Enzymatic assay for MASP-2 (fluorogenic substrate)
- Format: biochemical
- CONDITION SUMMARY: MASP-2 Ki (μM)
MEASURED PROPERTY: Ki

For UniProtKB O00187, provide Ki of CCCCOC(=O)NC(=N)c1ccc(CNC(=O)[C@H](C)NC(=O)[C@H]2C[C@H](c3ccccc3)CN2)cc1 [Compound 1260] please.
2.5 to 10 µM

* * *

Recorded Ki, one value per entry.
- ASSAYED SYSTEM: human α-thrombin (Homo sapiens (Human), UniProt P00734)
- METHOD NOTES: Enzymatic assay for thrombin (Boc-VPR-AMC)
- Format: biochemical
- CONDITION SUMMARY: Thrombin Ki (μM)

Fill blank: measured Ki of the compound Cc1nc(N)ccc1CNC(=O)[C@@H](C)NC(=O)[C@H]1C[C@H](c2cccc(-c3ccccc3)c2)CN1 [Compound 1359] is ____.
> 25 µM

Fill blank: measured Ki of the compound CCCCOC(=O)NC(=N)c1ccc(CNC(=O)[C@H](C)NC(=O)[C@H]2C[C@H](c3ccccc3)CN2)cc1 [Compound 1260] is ____.
> 25 µM

Fill blank: measured Ki of the compound Cc1nc(N)ccc1CNC(=O)[C@H](C)NC(=O)[C@H]1C[C@H](c2cccc(-c3ccccc3)c2)CN1 [Compound 1360] is ____.
> 25 µM

* * *

Recorded pKi, one value per entry.
- ASSAYED SYSTEM: human α-thrombin (Homo sapiens (Human), UniProt P00734)
- METHOD NOTES: Enzymatic assay for thrombin (Boc-VPR-AMC)
- Format: biochemical
- CONDITION SUMMARY: human α-thrombin, Boc-VPR-AMC; read-out: Thrombin Ki
pKi: −log10 of the molar value.

See these solved cases before continuing.
| LINE NOTATION | pKi |
| --- | --- |
| C[C@H](NC(=O)[C@H](N)CCc1ccc(F)cc1)C(=O)NCc1ccc(C(=N)N)cc1 | > 5.60 |
| COC(=O)CCCCCN[C@H](CCc1ccccc1)C(=O)N[C@@H](C)C(=O)NCc1ccc(C(=N)N)cc1 | > 6.30 |
| C[C@H](NC(=O)[C@@H](CCc1ccccc1)NCc1cc2ccccc2[nH]1)C(=O)NCc1ccc(C(=N)N)cc1 | > 6.30 |
| CCOC(=O)COc1ccc(Cl)cc1CNC(=O)[C@H](C)NC(=O)[C@H](N)CCc1ccccc1 | > 5.00 |

Okay, next one:
Fill blank: measured pKi of the compound C[C@H](NC(=O)[C@@H](CCc1ccccc1)NCc1ccc(F)cc1)C(=O)NCc1ccc(C(=N)N)cc1 is ____.
> 6.30

* * *

- ASSAYED SYSTEM: mMASP-2 (Mus musculus (Mouse), UniProt Q91WP0)
- Sequence (Q91WP0 20-685): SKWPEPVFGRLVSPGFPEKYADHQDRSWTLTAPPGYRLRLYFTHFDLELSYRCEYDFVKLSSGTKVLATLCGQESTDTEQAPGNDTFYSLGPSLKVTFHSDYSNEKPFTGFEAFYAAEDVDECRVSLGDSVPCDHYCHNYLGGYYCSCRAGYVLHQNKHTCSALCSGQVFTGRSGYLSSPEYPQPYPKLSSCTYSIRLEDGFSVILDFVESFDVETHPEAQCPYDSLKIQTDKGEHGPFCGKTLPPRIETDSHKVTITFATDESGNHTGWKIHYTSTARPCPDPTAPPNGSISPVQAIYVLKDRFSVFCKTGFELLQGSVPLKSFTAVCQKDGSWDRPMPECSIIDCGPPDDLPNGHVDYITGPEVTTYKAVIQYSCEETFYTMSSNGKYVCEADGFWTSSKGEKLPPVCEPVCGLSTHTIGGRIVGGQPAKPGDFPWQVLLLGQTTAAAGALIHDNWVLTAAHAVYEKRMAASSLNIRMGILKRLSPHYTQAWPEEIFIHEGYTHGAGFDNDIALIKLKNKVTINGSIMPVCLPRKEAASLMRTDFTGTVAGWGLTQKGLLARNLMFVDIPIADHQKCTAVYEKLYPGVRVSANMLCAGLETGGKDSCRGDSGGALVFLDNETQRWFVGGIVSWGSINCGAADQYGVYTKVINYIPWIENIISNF
- METHOD NOTES: Enzymatic assay for mMASP-2 (Ki)
- Format: biochemical
pKi: −log10 of the molar value.
MEASURED PROPERTY: pKi

| LINE NOTATION | RECORDED VALUE |
| --- | --- |
| Cc1nc(N)ccc1CNC(=O)[C@H](C)NC(=O)[C@H]1C[C@@H](c2ccccc2)CCN1CC(=O)O | > 6.30 |
| Cc1nc(N)ccc1CNC(=O)[C@H](C)NC(=O)[C@H]1CC(Cc2ccc(F)cc2)(Cc2ccc(F)cc2)CN1 | > 6.30 |
| Cc1nc(N)ccc1CNC(=O)[C@@H](C)NC(=O)[C@H]1C[C@H](c2cccc(-c3ccccc3)c2)CN1 | 4.60 to 5.00 |

Okay, next one:
Fill blank: measured pKi of the molecule Cc1nc(N)ccc1CNC(=O)[C@H](C)NC(=O)[C@H]1C[C@H](c2cccc(-c3ccccc3)c2)CN1 is ____.
> 6.30

* * *

- ASSAYED SYSTEM: mMASP-2 (Mus musculus (Mouse), UniProt Q91WP0)
- METHOD NOTES: Enzymatic assay for mMASP-2 (Ki)
- Format: biochemical
Recorded Ki, one value per entry.

| MOLECULE | MEASURED PROPERTY | RECORDED VALUE |
| --- | --- | --- |
| C[C@H](NC(=O)[C@H](N)CCc1ccccc1)C(=O)NCc1ccc2nc(N)[nH]c2c1 | Ki | < 500 nM |
| C[C@H](NC(=O)[C@H]1CCc2ccccc2N1)C(=O)NCc1ccc(C(=N)N)cc1 | Ki | < 25000 nM |
| C[C@H](NC(=O)[C@@H](CCc1ccccc1)NCc1cc2ccccc2[nH]1)C(=O)NCc1ccc(C(=N)N)cc1 | Ki | < 500 nM |

Fill blank: measured Ki of the molecule C[C@H](NC(=O)C1CC(c2ccccc2)CCN1)C(=O)NCc1ccc(C(=N)N)cc1 (stereo partly shown) is ____.
< 500 nM
